system: NCI-H2122 cells; assay: Anti proliferative activity in NCI-H2122 cells by XTT assay; format: cell-based; settings: Homo sapiens, NCI-H2122, 192 h, H2122 cell line, 8 days (192 hour) incubation
The entries below are paired with their reported IC50.

# IC50 lookup, item CC(C#Cc1ccc(Cl)c(Cl)c1)NC(=O)N1CCN(C(=O)C2CC(Br)=NO2)CC1 (racemic)
10 to 25 µM

New cases:
# IC50 lookup, item C=CC(=O)N1CCN(C(=O)NC(C)C#Cc2ccc(Cl)c(NC(C)=O)c2)CC1 (racemic)
10 to 25 µM

# IC50 lookup, item C=CC(=O)N1CC(C(=O)N2CCN(C(=O)NC3(C#Cc4ccc(Cl)c(Cl)c4)CC3)CC2)C1
> 25 µM

# IC50 lookup, item CC(C#Cc1ccc(Cl)c(Cl)c1)NC(=O)N1CCN(C(=O)/C=C/C(F)(F)F)CC1 (racemic) [Example 42]
< 10 µM

# IC50 lookup, item C=CC(=O)N1CCN(C(=O)NC(C)C#Cc2ccc(OCc3ccccc3)c(Cl)c2)CC1 (stereo not drawn)
< 10 µM

# IC50 lookup, item C=CC(=O)N1CCN(C(=O)NC(C)C#Cc2ccc(Cl)c(Cl)c2)CC1=O (racemic)
10 to 25 µM

# IC50 lookup, item CC(C#Cc1ccc(Cl)c(Cl)c1)NC(=O)N1CCN(C(=O)/C=C/C(F)(F)F)CC1 (stereo not drawn) [Example 42a]
< 10 µM

# IC50 lookup, item C=CC(=O)N1CCN(C(=O)NC(C)C#Cc2ccc(F)cc2)CC1 (stereo not drawn)
> 25 µM

# IC50 lookup, item O=C(/C=C/C(F)(F)F)N1CCN(C(=O)NC2(C#Cc3ccc(Cl)c(Cl)c3)CC2)CC1
< 10 µM

====

The entries below are paired with their reported pIC50.
system: NCI-H1792 cells; assay: Anti proliferative activity in NCI-H1792 cells by XTT assay; type: cell-based; conditions: Homo sapiens, NCI-H1792, 72 h, H1792 cell line, 72 hours incubation
pIC50: −log10 of the molar value.

Examples with their reported pIC50 follow.
# pIC50 lookup, item CC(C#Cc1ccc(Cl)c(Cl)c1)NC(=O)N1CCN(C(=O)/C=C/CN(C)C)CC1 (racemic)
> 5.00

# pIC50 lookup, item C=CS(=O)(=O)N[C@H]1CC[C@@H](NC(=O)NC(C)C#Cc2ccc(Cl)c(Cl)c2)CC1 (mixture of isomers)
> 5.00

API: the following record is the query input.
# pIC50 lookup, item C=CC(=O)N1CCN(C(=O)NC(C)C#Cc2ccc(Cl)c(Cl)c2)CC1 (racemic) [Example 1]
> 5.00

====

system: NCI-H2122 cells; experiment: Anti proliferative activity in NCI-H2122 cells by XTT assay; format: cell-based; details: Homo sapiens, NCI-H2122, 192 h, H2122 cell line, 8 days (192 hour) incubation
pIC50: −log10 of the molar value.
parameterMeasured: pIC50

Field: pIC50 (NCI-H2122 cells). Entry: CC(C#Cc1ccc(Cl)c(Cl)c1)NC(=O)N1CCC(n2ccnc2)CC1 (stereo not shown) [Example 62]
4.60 to 5.00

====

test system: NCI-H2122 cells; experiment: Anti proliferative activity in NCI-H2122 cells by XTT assay; format: cell-based; details: Homo sapiens, NCI-H2122, 192 h, H2122 cell line, 8 days (192 hour) incubation
The entries below are paired with their reported IC50.

# IC50 lookup, item C=CC(=O)NC1(C(=O)NC(C)C#Cc2ccc(Cl)c(Cl)c2)CCCC1 (stereo not drawn)
> 25 µM

# IC50 lookup, item C=CC(=O)N1CCN(C(=O)NC(C)C#Cc2ccc(Oc3ccccc3)c(Cl)c2)CC1 (stereo not drawn)
10 to 25 µM

# IC50 lookup, item C=CC(=O)N1CCN(C(=O)NC(C)C#Cc2ccc(Cl)cc2Cl)CC1 (stereo not drawn)
10 to 25 µM

# IC50 lookup, item C=CC(=O)N1CCN(C(=O)NC(C)C#Cc2ccc(C#N)c(C(F)(F)F)c2)CC1 (stereo not drawn)
< 10 µM

# IC50 lookup, item C=CC(=O)N1CCN(C(=O)NC(C)C#Cc2ccc(N(CC)CC)c(Cl)c2)CC1 (stereo not drawn)
10 to 25 µM

New cases:
# IC50 lookup, item C=CC(=O)N1CCN(C(=O)NC(C)C#Cc2ccc(Cl)c(NC(=O)C3CC3)c2)CC1 (racemic)
10 to 25 µM

# IC50 lookup, item C=CC(=O)N1CC(N2CCN(C(=O)NC(C)C#Cc3ccc(Cl)c(C4(C)CC4)c3)CC2)C1 (stereo not drawn)
< 10 µM

# IC50 lookup, item CC(C#Cc1ccc(Cl)c(Cl)c1)NC(=O)N1CCN(CC2CO2)CC1 (stereo not drawn)
10 to 25 µM

# IC50 lookup, item C=CC(=O)N1CCN(C(=O)NC(C)C#Cc2ccc(Cl)c(N(CC)CC)c2)CC1 (stereo not drawn)
10 to 25 µM
